This section presents molecules with their documented IC50 values.
# Test system: U-251
# Protocol Text: Cytotoxicity against human U-251 cells assessed as reduction in cell viability measured after 72 hrs by MTS assay
# Type: functional, cell-based
# Details: U-251, 72 h
Readout: IC50 (nM)

Input Smiles	Readout	Unit Info	Qualifier Operator	Readout Number
N#Cc1ccc(-c2cn(-c3ccc(-c4cc(-c5ccccn5)nc(-c5ccccn5)c4)cc3)nn2)cc1	IC50	nM	=	1830
CC1(C)c2ccccc2-c2ccc(-c3cn(-c4ccc(-c5cc(-c6ccccn6)nc(-c6ccccn6)c5)cc4)nn3)cc21	IC50	nM	=	1880
CCCCCCCCCCCCc1cn(-c2ccc(-c3cc(-c4ccccn4)nc(-c4ccccn4)c3)cc2)nn1	IC50	nM	=	20400
CCCCCCCCn1c2ccccc2c2cc(-c3cn(-c4ccc(-c5cc(-c6ccccn6)nc(-c6ccccn6)c5)cc4)nn3)ccc21	IC50	nM	=	10100
CCCCCOc1ccc(-c2cn(-c3ccc(-c4cc(-c5ccccn5)nc(-c5ccccn5)c4)cc3)nn2)cc1	IC50	nM	=	609
c1ccc(-c2cn(-c3ccc(-c4cc(-c5ccccn5)nc(-c5ccccn5)c4)cc3)nn2)cc1	IC50	nM	=	955
c1ccc(-c2cc(-c3ccc(-n4cc(-c5ccc(-c6cccs6)s5)nn4)cc3)cc(-c3ccccn3)n2)nc1	IC50	nM	=	3590
COc1cccc2c1C(=O)c1c(O)c3c(c(O)c1C2=O)C[C@@](O)(C(=O)CO)C[C@@H]3O[C@H]1C[C@H](N)[C@H](O)[C@H](C)O1	IC50	nM	=	52
CCCCCCCCCCn1cc(-c2ccc(-c3cc(-c4nccs4)nc(-c4nccs4)c3)cc2)nn1	IC50	nM	>	25000
c1ccc(-c2cc(-c3ccc(-n4cc(-c5ccc6sc7ccccc7c6c5)nn4)cc3)cc(-c3ccccn3)n2)nc1	IC50	nM	=	2390
CCCCCCCCCCn1cc(-c2ccc(-c3cc(-c4cnccn4)nc(-c4cnccn4)c3)cc2)nn1	IC50	nM	>	25000
Oc1cn(-c2ccc(-c3cc(-c4ccccn4)nc(-c4ccccn4)c3)cc2)nn1	IC50	nM	=	1400
c1ccc(-c2cn(-c3ccc(-c4cc(-c5ccccn5)nc(-c5ccccn5)c4)cc3)nn2)nc1	IC50	nM	=	855

====

# System: NHDF
# Protocol Text: Cytotoxicity against NHDF cells assessed as reduction in cell viability measured after 72 hrs by MTS assay
# Format: cell-based
# Details: Homo sapiens
pIC50: −log10 of the molar value.
Readout: pIC50

Input Smiles	Result
CCCCCCCCn1c2ccccc2c2cc(-c3cn(-c4ccc(-c5cc(-c6ccccn6)nc(-c6ccccn6)c5)cc4)nn3)ccc21	< 4.60
CC1(C)c2ccccc2-c2ccc(-c3cn(-c4ccc(-c5cc(-c6ccccn6)nc(-c6ccccn6)c5)cc4)nn3)cc21	< 4.60
c1ccc(-c2cc(-c3ccc(-n4cc(-c5ccc6sc7ccccc7c6c5)nn4)cc3)cc(-c3ccccn3)n2)nc1	< 4.60
c1ccc(-c2cc(-c3ccc(-n4cc(-c5ccc(-c6cccs6)s5)nn4)cc3)cc(-c3ccccn3)n2)nc1	< 4.60
N#Cc1ccc(-c2cn(-c3ccc(-c4cc(-c5ccccn5)nc(-c5ccccn5)c4)cc3)nn2)cc1	5.69
COc1cccc2c1C(=O)c1c(O)c3c(c(O)c1C2=O)C[C@@](O)(C(=O)CO)C[C@@H]3O[C@H]1C[C@H](N)[C@H](O)[C@H](C)O1	6.86
CCCCCCCCCCCCc1cn(-c2ccc(-c3cc(-c4ccccn4)nc(-c4ccccn4)c3)cc2)nn1	5.04
c1ccc(-c2cn(-c3ccc(-c4cc(-c5ccccn5)nc(-c5ccccn5)c4)cc3)nn2)cc1	< 4.60
CCCCCOc1ccc(-c2cn(-c3ccc(-c4cc(-c5ccccn5)nc(-c5ccccn5)c4)cc3)nn2)cc1	< 4.60
c1ccc(-c2cn(-c3ccc(-c4cc(-c5ccccn5)nc(-c5ccccn5)c4)cc3)nn2)nc1	< 4.60
Oc1cn(-c2ccc(-c3cc(-c4ccccn4)nc(-c4ccccn4)c3)cc2)nn1	4.93

====

# Protocol Text: Dark toxicity in human HeLa cells assessed as reduction in cell viability measured after 4 hrs by resazurin dye based fluorescence assay
Readout: IC50 at 4 h (µM)

Input Smiles	Readout Number
CN(C)c1cc(-c2cccnc2)nc(-c2ccccn2)c1	19.6
c1ccc(-c2cccc(-c3cccnc3)n2)nc1	35.1
COc1cc(-c2cccnc2)nc(-c2ccccn2)c1	40.9
O=C(O)c1cc(-c2cccnc2)nc(-c2ccccn2)c1	50.5
Clc1cc(-c2cccnc2)nc(-c2ccccn2)c1	26.5
